test system: OVCAR-5; test: Growth inhibition of human OVCAR5 cells at 10 uM relative to control; assay type: functional; settings: read-out: GI
outcome measure: inhibition of growth at 10 µM

Cc1ccccc1-n1c(C)nc2cc(NC(=O)c3ccc(Cl)cc3)ccc2c1=O : 24.1%
Cc1ccccc1-n1c(C)nc2cc(NC(=O)c3ccccc3)ccc2c1=O : 12%
CCOC(=O)Nc1ccc2c(=O)n(-c3ccccc3C)c(C)nc2c1 : 3.2%
Cc1ccccc1-n1c(C)nc2cc(N)ccc2c1=S : 10%

###

system: Mus musculus; experiment: Anticonvulsant activity in mouse assessed as protection against maximal electroshock-induced seizure at 1 mmol/kg, ip administered 30 min prior to maximal electroshock-challenge measured after 60 mins relative to control; assay type: functional
outcome measure: Activity (%)

Cc1ccccc1-n1c(C)nc2cc(N3C(=O)CSC3c3ccc(F)cc3)ccc2c1=O (centres undefined) : 100
Cc1ccccc1-n1c(C)nc2cc(-n3c(C)nc4ccc(Cl)cc4c3=O)ccc2c1=O : 50
Cc1ccc(S(=O)(=O)Nc2ccc3c(=O)n(-c4ccccc4C)c(C)nc3c2)cc1 : 0
Cc1ccccc1-n1c(C)nc2cc(/N=C/c3ccco3)ccc2c1=O : 50
Cc1ccccc1-n1c(C)nc2cc(/N=C/c3ccccc3)ccc2c1=O : 50
CCOC(=O)Nc1ccc2c(=O)n(-c3ccccc3C)c(C)nc2c1 : 100
Cc1ccccc1-n1c(C)nc2cc(-n3c(C)nc4ccccc4c3=O)ccc2c1=O : 100
Cc1ccccc1-n1c(C)nc2cc(N3C(=O)CSC3c3ccc(Cl)cc3)ccc2c1=O (centres undefined) : 100
Cc1ccccc1-n1c(C)nc2cc(N3C(=O)CSC3c3ccccc3)ccc2c1=O (centres undefined) : 100
Cc1ccccc1-n1c(C)nc2cc(/N=C/c3ccc(F)cc3)ccc2c1=O : 100
Cc1ccccc1-n1c(C)nc2cc(/N=C/c3ccc(Cl)cc3)ccc2c1=O : 100
Cc1ccccc1-n1c(C)nc2cc(N3C(=O)C=CC3=O)ccc2c1=O : 33
Cc1ccccc1-n1c(C)nc2cc(NC(=O)c3ccccc3)ccc2c1=O : 33
Cc1ccccc1-n1c(C)nc2cc(NC(=O)c3ccc(Cl)cc3)ccc2c1=O : 50

###

system: CAKI-1; assay: Growth inhibition of human CAKI-1 cells at 10 uM relative to control; format: functional; conditions: read-out: GI
Catalogue of inhibition of growth at 10 µM readings, one per entry.
outcome measure: inhibition of growth at 10 µM (%)

Cc1ccccc1-n1c(C)nc2cc(N3C(=O)CSC3c3ccc(Cl)cc3)ccc2c1=O (configuration not stated) : 3
CCOC(=O)Nc1ccc2c(=O)n(-c3ccccc3C)c(C)nc2c1 : 5.3
Cc1ccccc1-n1c(C)nc2cc(NC(=O)c3ccccc3)ccc2c1=O : 4
Cc1ccccc1-n1c(C)nc2cc(NS(=O)(=O)c3ccccc3)ccc2c1=O : 4
Cc1ccccc1-n1c(C)nc2cc(N3C(=O)CSC3c3ccccc3)ccc2c1=O (configuration not stated) : 15.6
Cc1ccccc1-n1c(C)nc2cc(NC(=O)c3ccc(Cl)cc3)ccc2c1=O : 41.2
Cc1ccccc1-n1c(C)nc2cc(N)ccc2c1=S : 5

###

assay: Therapeutic index, ratio of LD50 for mouse to ED50 for pentylenetetrazol-induced seizure in mouse; assay type: organism-based; details: in vivo, read-out: Ratio LD50/ED50
Catalogue of selectivity ratio readings, one per entry.
outcome measure: selectivity ratio

Cc1ccccc1-n1c(C)nc2cc(/N=C/c3ccc(F)cc3)ccc2c1=O : 5.5
CCOC(=O)Nc1ccc2c(=O)n(-c3ccccc3C)c(C)nc2c1 : 2.6
Cc1ccccc1-n1c(C)nc2cc(/N=C/c3ccc(Cl)cc3)ccc2c1=O : 4.6
Cc1ccccc1-n1c(C)nc2cc(N3C(=O)CSC3c3ccc(F)cc3)ccc2c1=O (configuration not stated) : 2.55
Cc1ccccc1-n1c(C)nc2cc(N3C(=O)CSC3c3ccccc3)ccc2c1=O (configuration not stated) : 2.13
Cc1ccccc1-n1c(C)nc2ccccc2c1=O [METHAQUALONE] : 1.4
Cc1ccccc1-n1c(C)nc2cc(N3C(=O)CSC3c3ccc(Cl)cc3)ccc2c1=O (configuration not stated) : 2.53

###

species: Mus musculus; test: Protective index, ratio of TD50 for mouse to ED50 for pentylenetetrazol-induced seizure in mouse; format: functional
Label condition not met if Ratio TD50/ED50 falls below 2; label condition met in every other case.

Cc1ccccc1-n1c(C)nc2cc(/N=C/c3ccc(Cl)cc3)ccc2c1=O : condition met
Cc1ccccc1-n1c(C)nc2ccccc2c1=O : condition not met
Cc1ccccc1-n1c(C)nc2cc(/N=C/c3ccc(F)cc3)ccc2c1=O : condition met
Cc1ccccc1-n1c(C)nc2cc(N3C(=O)CSC3c3ccc(F)cc3)ccc2c1=O (configuration not stated) : condition not met
Cc1ccccc1-n1c(C)nc2cc(N3C(=O)CSC3c3ccc(Cl)cc3)ccc2c1=O (configuration not stated) : condition not met
CCOC(=O)Nc1ccc2c(=O)n(-c3ccccc3C)c(C)nc2c1 : condition met
Cc1ccccc1-n1c(C)nc2cc(N3C(=O)CSC3c3ccccc3)ccc2c1=O (configuration not stated) : condition not met

###

test system: MDA-MB-231; assay: Growth inhibition of human MDA-MB-231 cells at 10 uM relative to control; assay type: functional; conditions: read-out: GI
outcome measure: inhibition of growth at 10 µM (%)

Cc1ccccc1-n1c(C)nc2cc(N3C(=O)CSC3c3ccc(F)cc3)ccc2c1=O (centres undefined) : 8
Cc1ccccc1-n1c(C)nc2cc(NC(=O)c3ccc(Cl)cc3)ccc2c1=O : 42.7
Cc1ccccc1-n1c(C)nc2cc(N3C(=O)CSC3c3ccc(Cl)cc3)ccc2c1=O (centres undefined) : 23.7
Cc1ccccc1-n1c(C)nc2cc(N3C(=O)CSC3c3ccccc3)ccc2c1=O (centres undefined) : 17.3

###

Catalogue of inhibition of growth at 10 µM readings, one per entry.
system: A549; experiment: Growth inhibition of human A549 cells at 10 uM relative to control; format: functional; conditions: read-out: GI
outcome measure: inhibition of growth at 10 µM (%)

Cc1ccccc1-n1c(C)nc2cc(NS(=O)(=O)c3ccccc3)ccc2c1=O : 5
Cc1ccccc1-n1c(C)nc2cc(N3C(=O)CSC3c3ccc(F)cc3)ccc2c1=O (configuration not stated) : 2
Cc1ccccc1-n1c(C)nc2cc(N3C(=O)CSC3c3ccc(Cl)cc3)ccc2c1=O (configuration not stated) : 12
Cc1ccccc1-n1c(C)nc2cc(NC(=O)c3ccccc3)ccc2c1=O : 11
Cc1ccccc1-n1c(C)nc2cc(NC(=O)c3ccc(Cl)cc3)ccc2c1=O : 27.8
CCOC(=O)Nc1ccc2c(=O)n(-c3ccccc3C)c(C)nc2c1 : 3
Cc1ccccc1-n1c(C)nc2cc(N3C(=O)CSC3c3ccccc3)ccc2c1=O (configuration not stated) : 8.1

###

system: ACHN; assay: Growth inhibition of human ACHN cells at 10 uM relative to control; assay type: functional; settings: read-out: GI
Catalogue of inhibition of growth at 10 µM readings, one per entry.
outcome measure: inhibition of growth at 10 µM (%)

Cc1ccccc1-n1c(C)nc2cc(N3C(=O)CSC3c3ccc(Cl)cc3)ccc2c1=O (stereo not given) : 3.5
Cc1ccccc1-n1c(C)nc2cc(NC(=O)c3ccc(Cl)cc3)ccc2c1=O : 52
Cc1ccccc1-n1c(C)nc2cc(N3C(=O)CSC3c3ccc(F)cc3)ccc2c1=O (stereo not given) : 3
CCOC(=O)Nc1ccc2c(=O)n(-c3ccccc3C)c(C)nc2c1 : 4
Cc1ccccc1-n1c(C)nc2cc(NC(=O)c3ccccc3)ccc2c1=O : 24

###

test system: EKVX; assay: Growth inhibition of human EKVX cells at 10 uM relative to control; type: functional; settings: read-out: GI
outcome measure: inhibition of growth at 10 µM (%)

Cc1ccccc1-n1c(C)nc2cc(N3C(=O)CSC3c3ccc(Cl)cc3)ccc2c1=O (stereo not drawn) : 4
Cc1ccccc1-n1c(C)nc2cc(N3C(=O)CSC3c3ccccc3)ccc2c1=O (stereo not drawn) : 12.8
Cc1ccccc1-n1c(C)nc2cc(N)ccc2c1=S : 15.2
Cc1ccccc1-n1c(C)nc2cc(NC(=O)c3cccs3)ccc2c1=O : 11
Cc1ccccc1-n1c(C)nc2cc(NC(=O)c3ccc(Cl)cc3)ccc2c1=O : 48.5
Cc1ccccc1-n1c(C)nc2cc(NC(=O)c3ccccc3)ccc2c1=O : 11.1
Cc1ccccc1-n1c(C)nc2cc(NS(=O)(=O)c3ccccc3)ccc2c1=O : 14.3
CCOC(=O)Nc1ccc2c(=O)n(-c3ccccc3C)c(C)nc2c1 : 11.6

###

tested on: PC-3; assay: Growth inhibition of human PC3 cells at 10 uM relative to control; type: functional; details: read-out: GI
Label FALSE if inhibition of growth at 10 µM falls below 10%; label TRUE in every other case.

Cc1ccccc1-n1c(C)nc2cc(N3C(=O)CSC3c3ccc(F)cc3)ccc2c1=O (stereo not drawn) : TRUE
Cc1ccccc1-n1c(C)nc2cc(NS(=O)(=O)c3ccccc3)ccc2c1=O : FALSE
Cc1ccccc1-n1c(C)nc2cc(N)ccc2c1=S : FALSE
CCOC(=O)Nc1ccc2c(=O)n(-c3ccccc3C)c(C)nc2c1 : TRUE
Cc1ccccc1-n1c(C)nc2cc(N3C(=O)CSC3c3ccccc3)ccc2c1=O (stereo not drawn) : TRUE
Cc1ccccc1-n1c(C)nc2cc(N3C(=O)CSC3c3ccc(Cl)cc3)ccc2c1=O (stereo not drawn) : FALSE
Cc1ccccc1-n1c(C)nc2cc(NC(=O)c3ccccc3)ccc2c1=O : FALSE
Cc1ccccc1-n1c(C)nc2cc(NC(=O)c3ccc(Cl)cc3)ccc2c1=O : TRUE
